Assay: Concentration (solubility) of gemfibrozil in buffer, from absorbance at 280 nm
Type: physicochemical
Conditions: aqueous buffer; 0.05 M acetate buffer, pH 4.5; excess gemfibrozil agitated overnight at room temperature, filtered; read-out: concentration of gemfibrozil in each buffer
Method: Gemfibrozil solutions were prepared in 0.05 M acetate buffer, pH 4.5, and 0.05 M phosphate buffer, pH 6.0 and 7.5 as follows: • Gemfibrozil solutions were prepared by adding an excess of gemfibrozil to the desired volume of buffer and agitating overnight on a shaker at room temperature. […] Gemfibrozil concentration was determined from absorbance at 280 nm, using [formula] Ultraviolet absorbance measurements were obtained on a Beckman DU-7 spectrophotometer. […]
observation.type: solubility thermodynamic (mg/mL)
Hi! Could you send only the number? It should be in mg/mL, unit omitted.

Summary for this compound, Cc1ccc(C)c(OCCCC(C)(C)C(=O)O)c1 : solubility thermodynamic is 0.014

* * *

test: Concentration (solubility) of gemfibrozil in buffer, from absorbance at 280 nm; format: physicochemical; details: aqueous buffer; 0.05 M phosphate buffer, pH 6.0; excess gemfibrozil agitated overnight at room temperature, filtered; read-out: concentration of gemfibrozil in each buffer
observation.type: solubility thermodynamic
Write the figure, then the unit, nothing else.

Summary for this molecule, Cc1ccc(C)c(OCCCC(C)(C)C(=O)O)c1 [gemfibrozil] : solubility thermodynamic is 150 µg/mL

* * *

test: Concentration (solubility) of gemfibrozil in buffer, from absorbance at 280 nm; assay type: physicochemical; details: aqueous buffer; 0.05 M phosphate buffer, pH 7.5; excess gemfibrozil agitated overnight at room temperature, filtered; read-out: concentration of gemfibrozil in each buffer
observation.type: solubility thermodynamic
Write the figure, then the unit, nothing else.

Summary for this molecule, Cc1ccc(C)c(OCCCC(C)(C)C(=O)O)c1 : solubility thermodynamic is 1710 µg/mL

Origin of the recorded values: patent EP0261693A1
